Conditions: 293 K; 101.33 kPa; Liquid; Concentric cylinders viscometry
Measured viscosity accompanies every entry in the list below.
Kindly answer with a numeric value in mPa·s, unit omitted.

Use these answered entries as a reference point.
query: Which viscosity value is on record for "CCCCCCCCCCCCn1cc[n+](C)c1.O=S(=O)([N-]S(=O)(=O)C(F)(F)F)C(F)(F)F" ?
result: 205

query: Record request: viscosity value, item "CCn1cc[n+](C)c1.O=S(=O)([N-]S(=O)(=O)C(F)(F)F)C(F)(F)F"
result: 39.71

query: Requested read-out: viscosity. Entry: "CCCCCC[n+]1ccn(C)c1.O=S(=O)([N-]S(=O)(=O)C(F)(F)F)C(F)(F)F"
result: 90.13

query: Look up viscosity: "CCCCCCCn1cc[n+](C)c1.O=S(=O)([N-]S(=O)(=O)C(F)(F)F)C(F)(F)F"
result: 104.17

query: Param item = "CCCn1cc[n+](C)c1.O=S(=O)([N-]S(=O)(=O)C(F)(F)F)C(F)(F)F" ; retrieve measured viscosity.
result: 56.78

query: Which value of viscosity has been reported for "CCCC[n+]1ccn(C)c1.O=S(=O)([N-]S(=O)(=O)C(F)(F)F)C(F)(F)F" in the records?
result: 62.99

More entries:
query: Fill in: viscosity of "CCCCCCCCCCn1cc[n+](C)c1.O=S(=O)([N-]S(=O)(=O)C(F)(F)F)C(F)(F)F" is ___
result: 157.52

query: Value lookup for viscosity; key = "CCCCCCCCn1cc[n+](C)c1.O=S(=O)([N-]S(=O)(=O)C(F)(F)F)C(F)(F)F"
result: 120.46

query: Requested field: viscosity. Item: "CCCCCn1cc[n+](C)c1.O=S(=O)([N-]S(=O)(=O)C(F)(F)F)C(F)(F)F"
result: 72.76

###

Settings: 358 K; 101.33 kPa; Liquid; Concentric cylinders viscometry
Decision: viscosity compared against 10 mPa·s; not below it gives rule met, below it gives rule not met.

Examples from the recorded data:
query: Evaluate "CCCCCCCCCCCCCCn1cc[n+](C)c1.O=S(=O)([N-]S(=O)(=O)C(F)(F)F)C(F)(F)F" : viscosity at minimum 10 mPa·s?
result: rule met

query: Would you say "CCCCCCCCn1cc[n+](C)c1.O=S(=O)([N-]S(=O)(=O)C(F)(F)F)C(F)(F)F" shows viscosity at minimum 10 mPa·s?
result: rule met

query: Check this compound for viscosity at or above 10 mPa·s: "CCCC[n+]1ccn(C)c1.O=S(=O)([N-]S(=O)(=O)C(F)(F)F)C(F)(F)F"
result: rule not met

Next:
query: Is the recorded value of viscosity equal to or greater than 10 mPa·s for this compound? "CCn1cc[n+](C)c1.O=S(=O)([N-]S(=O)(=O)C(F)(F)F)C(F)(F)F"
result: rule not met

query: Dear colleague, could you confirm whether "CCCCCn1cc[n+](C)c1.O=S(=O)([N-]S(=O)(=O)C(F)(F)F)C(F)(F)F" has viscosity at or above 10 mPa·s?
result: rule not met

query: Confirm if viscosity reported for the compound "CCCCCCCCCCCCn1cc[n+](C)c1.O=S(=O)([N-]S(=O)(=O)C(F)(F)F)C(F)(F)F" is 10 mPa·s or above.
result: rule met

query: Identify whether the reported viscosity of the following compound is 10 mPa·s or greater: "CCCCCCCCCCn1cc[n+](C)c1.O=S(=O)([N-]S(=O)(=O)C(F)(F)F)C(F)(F)F"
result: rule met

query: Is reported viscosity greater than or equal to 10 mPa·s here: "CCCCCCCn1cc[n+](C)c1.O=S(=O)([N-]S(=O)(=O)C(F)(F)F)C(F)(F)F"
result: rule met

query: Given the entry "CCCn1cc[n+](C)c1.O=S(=O)([N-]S(=O)(=O)C(F)(F)F)C(F)(F)F" , answer whether its viscosity meets or surpasses 10 mPa·s.
result: rule not met

###

Conditions: 333 K; 101.33 kPa; Liquid; Concentric cylinders viscometry
Measurement name: viscosity (mPa·s)
Kindly provide the numeric value in mPa·s only, without the unit symbol.

query: If you can, please state the reported viscosity value of "CCCCCn1cc[n+](C)c1.O=S(=O)([N-]S(=O)(=O)C(F)(F)F)C(F)(F)F" .
result: 16.6

query: What does the data say about its viscosity? Entry: "CCCCCCCCCCCCCCn1cc[n+](C)c1.O=S(=O)([N-]S(=O)(=O)C(F)(F)F)C(F)(F)F"
result: 42.83

Further cases:
query: Would you kindly share the measured viscosity for "CCCCCCCn1cc[n+](C)c1.O=S(=O)([N-]S(=O)(=O)C(F)(F)F)C(F)(F)F" ?
result: 21.2

query: Suppose we examine the molecule "CCCC[n+]1ccn(C)c1.O=S(=O)([N-]S(=O)(=O)C(F)(F)F)C(F)(F)F" ; what viscosity value has been reported?
result: 15.38

query: // returns reported viscosity for input "CCn1cc[n+](C)c1.O=S(=O)([N-]S(=O)(=O)C(F)(F)F)C(F)(F)F"
result: 12.16

###

Conditions: 298 K; 101.33 kPa; Liquid; Concentric cylinders viscometry
Recorded viscosity for the following compounds
Write it as a number; the unit mPa·s goes unstated.

query: # query: viscosity of entry "CCCC[n+]1ccn(C)c1.O=S(=O)([N-]S(=O)(=O)C(F)(F)F)C(F)(F)F"
result: 50.62

query: Name the reported viscosity value associated with the compound "CCCCCn1cc[n+](C)c1.O=S(=O)([N-]S(=O)(=O)C(F)(F)F)C(F)(F)F"
result: 57.81

query: Which measured viscosity value corresponds to "CCCCCCCCn1cc[n+](C)c1.O=S(=O)([N-]S(=O)(=O)C(F)(F)F)C(F)(F)F" ?
result: 93.05

query: Which measured viscosity value corresponds to "CCn1cc[n+](C)c1.O=S(=O)([N-]S(=O)(=O)C(F)(F)F)C(F)(F)F" ?
result: 33

query: What does the data say about its viscosity? Entry: "CCCCCCCCCCCCn1cc[n+](C)c1.O=S(=O)([N-]S(=O)(=O)C(F)(F)F)C(F)(F)F"
result: 154.33

Continue with the compound presented below.
query: Quick check: viscosity of "CCCCCCCn1cc[n+](C)c1.O=S(=O)([N-]S(=O)(=O)C(F)(F)F)C(F)(F)F" ?
result: 81.11

###

Settings: 278 K; 101.33 kPa; Liquid; Concentric cylinders viscometry
# key: entry, value: viscosity
Report as a plain number; the unit mPa·s is understood.

query: What value of measured viscosity is listed for "CCCCCCCn1cc[n+](C)c1.O=S(=O)([N-]S(=O)(=O)C(F)(F)F)C(F)(F)F" ?
result: 235

###

Conditions: 338 K; 101.33 kPa; Liquid; Concentric cylinders viscometry
Measurement name: viscosity (mPa·s)
Kindly answer with a numeric value in mPa·s, unit omitted.

Study these solved cases before continuing.
query: For the compound shown here, "CCCCCCCCCCCCCCn1cc[n+](C)c1.O=S(=O)([N-]S(=O)(=O)C(F)(F)F)C(F)(F)F" , give the reported viscosity.
result: 35.87

query: Item under review: "CCCCCC[n+]1ccn(C)c1.O=S(=O)([N-]S(=O)(=O)C(F)(F)F)C(F)(F)F" . Reported viscosity?
result: 16.65

query: Data request, read-out viscosity, for "CCCn1cc[n+](C)c1.O=S(=O)([N-]S(=O)(=O)C(F)(F)F)C(F)(F)F"
result: 12.79

query: Given the compound "CCCC[n+]1ccn(C)c1.O=S(=O)([N-]S(=O)(=O)C(F)(F)F)C(F)(F)F" , what is its reported viscosity?
result: 13.5

Continuing:
query: Please look up its viscosity: "CCn1cc[n+](C)c1.O=S(=O)([N-]S(=O)(=O)C(F)(F)F)C(F)(F)F"
result: 10.87

query: # get_value(readout='viscosity', item= "CCCCCCCn1cc[n+](C)c1.O=S(=O)([N-]S(=O)(=O)C(F)(F)F)C(F)(F)F" )
result: 18.3

query: Value lookup for viscosity; key = "CCCCCCCCCCn1cc[n+](C)c1.O=S(=O)([N-]S(=O)(=O)C(F)(F)F)C(F)(F)F"
result: 23.97

query: What value of viscosity has been reported for the following compound? "CCCCCn1cc[n+](C)c1.O=S(=O)([N-]S(=O)(=O)C(F)(F)F)C(F)(F)F"
result: 14.48

query: Which viscosity value belongs to "CCCCCCCCn1cc[n+](C)c1.O=S(=O)([N-]S(=O)(=O)C(F)(F)F)C(F)(F)F" ?
result: 20.06

query: Look up viscosity: "CCCCCCCCCCCCn1cc[n+](C)c1.O=S(=O)([N-]S(=O)(=O)C(F)(F)F)C(F)(F)F"
result: 28.76

###

Settings: 303 K; 101.33 kPa; Liquid; Concentric cylinders viscometry
// label = yes (1) if viscosity is not less than 60 mPa·s, otherwise no (0)

Please review the entries below; each comes with its answer.
query: // inclusive: viscosity at least 60 mPa·s? input: "CCCCCCCn1cc[n+](C)c1.O=S(=O)([N-]S(=O)(=O)C(F)(F)F)C(F)(F)F"
result: yes (1)

query: Dear colleague, could you confirm whether "CCCC[n+]1ccn(C)c1.O=S(=O)([N-]S(=O)(=O)C(F)(F)F)C(F)(F)F" has viscosity at or above 60 mPa·s?
result: no (0)

query: Dear colleague, could you confirm whether "CCn1cc[n+](C)c1.O=S(=O)([N-]S(=O)(=O)C(F)(F)F)C(F)(F)F" has viscosity at or above 60 mPa·s?
result: no (0)

query: Test whether the compound "CCCCCn1cc[n+](C)c1.O=S(=O)([N-]S(=O)(=O)C(F)(F)F)C(F)(F)F" records viscosity of 60 mPa·s or higher.
result: no (0)

query: In plain terms: is recorded viscosity at least 60 mPa·s for "CCCCCCCCn1cc[n+](C)c1.O=S(=O)([N-]S(=O)(=O)C(F)(F)F)C(F)(F)F" ?
result: yes (1)

query: Hi, just wondering whether "CCCCCCCCCCCCn1cc[n+](C)c1.O=S(=O)([N-]S(=O)(=O)C(F)(F)F)C(F)(F)F" shows viscosity of 60 mPa·s or higher.
result: yes (1)

---
query: API: above_or_equal(metric=viscosity, cutoff=60 mPa·s) for item "CCCCCC[n+]1ccn(C)c1.O=S(=O)([N-]S(=O)(=O)C(F)(F)F)C(F)(F)F"
result: no (0)

query: # bool: viscosity of "CCCCCCCCCCn1cc[n+](C)c1.O=S(=O)([N-]S(=O)(=O)C(F)(F)F)C(F)(F)F" >= 60 mPa·s
result: yes (1)

query: # bool: viscosity of "CCCn1cc[n+](C)c1.O=S(=O)([N-]S(=O)(=O)C(F)(F)F)C(F)(F)F" >= 60 mPa·s
result: no (0)
